- Tested on: LG0567-F671-PDC complex spheroids viability;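 also: spheroids exposed to compound for seven days before readout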
- assay_remarks: Anticancer human tumor LG0567-F671-PDC patient-derived lung adenocarcinoma cell line growth inhibition [RAS]
- measurement_context: second compound 0.0316 µM; first compound 0.3 µM; stronger effect = lower value
Each record here notes measured viability, T/C.

INSERT INTO measurements (compound, result) VALUES
  ('CCc1c2c(nc3ccc(O)cc13)-c1cc3c(c(=O)n1C2)COC(=O)[C@]3(O)CC + C=CC(=O)N1CCN(c2nc(OCC3CCCN3C)nc3c(F)c(-c4nc(N)cc(C)c4C(F)(F)F)c(Cl)cc23)C(C)C1', '3.69%'),
  ('CCc1c2c(nc3ccc(O)cc13)-c1cc3c(c(=O)n1C2)COC(=O)[C@]3(O)CC + C#Cc1c(F)ccc2cc(O)cc(-c3ncc4c(N5CC6CCC(C5)N6)nc(OCC56CCCN5CC(F)C6)nc4c3F)c12', '6.15%'),
  ('CC1(C)CCC(Nc2ncc(C(F)(F)F)c(-c3c[nH]c4c(P(C)(C)=O)c(C#N)ccc34)n2)CN1 (centres undefined) + C=CC(=O)N1CCN(c2nc(OCC3CCCN3C)nc3c(F)c(-c4nc(N)cc(C)c4C(F)(F)F)c(Cl)cc23)C(C)C1', '10.8%');

input: What viability, T/C value was documented for this compound, CC1(C)CCC(Nc2ncc(C(F)(F)F)c(-c3c[nH]c4c(P(C)(C)=O)c(C#N)ccc34)n2)CN1 (centres undefined) + C#Cc1c(F)ccc2cc(O)cc(-c3ncc4c(N5CC6CCC(C5)N6)nc(OCC56CCCN5CC(F)C6)nc4c3F)c12 ?
output: 46%

All values here come from PubChem BioAssay AID2060889.
